// furin cleavage Z-score lookup, one value per entry
- Assayed target: furin, P09958;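 also: purified furin at 1:10 enzyme:substrate in 50 mM HEPES pH 7.5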
- Sequence (P09958 whole entry): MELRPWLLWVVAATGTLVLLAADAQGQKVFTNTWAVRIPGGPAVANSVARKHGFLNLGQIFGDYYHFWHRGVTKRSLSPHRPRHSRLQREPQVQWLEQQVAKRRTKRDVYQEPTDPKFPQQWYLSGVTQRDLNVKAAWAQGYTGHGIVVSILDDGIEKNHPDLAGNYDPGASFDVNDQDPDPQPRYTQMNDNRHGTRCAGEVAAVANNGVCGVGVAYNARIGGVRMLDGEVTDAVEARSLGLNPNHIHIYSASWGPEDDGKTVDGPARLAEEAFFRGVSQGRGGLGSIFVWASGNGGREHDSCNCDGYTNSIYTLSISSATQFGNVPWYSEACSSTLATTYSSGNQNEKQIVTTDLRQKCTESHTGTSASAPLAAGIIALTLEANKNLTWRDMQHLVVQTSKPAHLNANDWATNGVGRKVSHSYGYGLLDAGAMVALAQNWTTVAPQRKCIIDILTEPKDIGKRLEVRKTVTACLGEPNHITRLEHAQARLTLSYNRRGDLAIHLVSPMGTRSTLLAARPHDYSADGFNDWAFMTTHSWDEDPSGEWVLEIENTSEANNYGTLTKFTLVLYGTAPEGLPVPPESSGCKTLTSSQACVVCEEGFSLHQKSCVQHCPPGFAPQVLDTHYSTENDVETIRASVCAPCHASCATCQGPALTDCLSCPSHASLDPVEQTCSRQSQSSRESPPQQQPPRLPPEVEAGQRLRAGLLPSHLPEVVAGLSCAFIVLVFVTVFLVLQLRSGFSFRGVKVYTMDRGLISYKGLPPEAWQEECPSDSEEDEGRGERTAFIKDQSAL
- Assay remarks: furin cleavage Z-score vs untreated control; higher = more cleavage, active = 3.5 or more, inactive = 1 or less, 8 variable residues between constant flanks
- Condition context: 30 min
The list shows a part of the results. How many sequences the whole screen found active is unknown.
Field format: numeric only.

> print(dat)
                 query.sequence  numeric.readout
1  CARSGRAKRFAGNASASA [FS-1271]             11.1
2  CARPRRFMDLAGNASASA [FS-3163]             1.71
3   CAMPECSQHLAGNASASA [HC1699]           -0.904

# ---- query sequence ----
// sample CADLGRAKRFAGNASASA [FS-225] , its furin cleavage Z-score was 9.16
